Recorded z-score values for a group of compounds are listed next.
- ASSAY INFO: basal RPMI8226 mitochondrial membrane potential changes, profiling panel, cell-based, JC-1 fluorescence, 24 h, 100 nL compound (AID 1169); also: test concentration not given here
- STATED CONDITIONS: RPMI8226 myeloma, JC-1 mitochondrial potential fluorescence, higher = more signal
Lab note: record just the number, no unit beside it.

Some entries whose results are on file:
O=C1c2ccccc2[C@@]2(Cc3ccccc3N(Cc3ccccc3)C2=O)[C@H](c2ccc(CO)cc2)N1Cc1ccccc1: 0.167
C=CC[C@]1(C(=O)OC)N=C(c2ccc(OCCCO)cc2)O[C@H]1c1ccccc1N=[N+]=[N-]: -1.13
CN(C)C(=O)[C@@]1(CCS(=O)(=O)c2ccccc2)N=C(c2ccc(OCCCO)cc2)O[C@H]1c1ccccc1N=[N+]=[N-]: -1.32

Identify measured z-score corresponding to CC(=O)c1ccc(C(O)C2C=CC3C(=O)NC(=O)C3N2Nc2ccc(Cl)cc2Cl)cc1 (stereo not drawn) 0.574

// Input: COC(=O)c1c(CC[C@@H](CO)NC(=O)N[C@@H](Cc2ccccc2)Cn2cc(-c3cncn3C)nn2)oc(C(C)=O)c1C(=O)OC . Output its z-score only. -0.442

Quote z-score reported for COC(=O)[C@]1(CO)N=C(c2ccc(OCCCO)cc2)O[C@@H]1c1ccccc1CN=[N+]=[N-] please. 0.00663

Let me know recorded z-score for CCCCN1CC=CC23O[C@@H]4C=CCOC(=O)[C@@H]4[C@H]2C(=O)N(CCO)[C@@H]3C1=O (stereo partly drawn) , thanks. 0.837

Entry CC(C)C(=C=CC[C@@H](O)c1ccc(OCCO)cc1)CCO needs its z-score filled in; supply it. -0.21

Name the recorded z-score of the item CC(C)C[C@@H]1NC(=O)[C@@H]2C[C@H](C(=O)NCCCC[N+](C)(C)C)[C@H](c3ccc(O)cc3)N2C1=O in your answer. 0.496

Determine its reported z-score: [N-]=[N+]=NCc1ccccc1C[C@@]1(C(=O)O)N=C(c2ccc(OCCCO)cc2)O[C@@H]1c1ccccc1CN=[N+]=[N-] -0.477

Provide only the value of recorded z-score for CCOC(=O)C1=CC[C@@H](c2ccccc2)N(S(=O)(=O)C[Si](C)(C)C)[C@H]1c1ccccc1 -0.687

Specify reported z-score for the compound shown: CC(C)(C)N1CC=CC23O[C@@H]4/C=C\CCCOC(=O)C4[C@H]2C(=O)N(CCCCCCO)[C@@H]3C1=O (stereo partly drawn) 0.116

Answer with the recorded z-score of COCCOC(=O)N1C(=O)[C@@]2(c3cc(C#CCCO)ccc31)[C@H](c1ccc(O)cc1)N1[C@H](c3ccccc3)[C@H](c3ccccc3)OC(=O)[C@H]1[C@@H]2C(=O)N1CCc2cc(OC)c(OC)cc2C1 only. -0.253

Fill in z-score for record COCCOC(=O)N1C(=O)[C@@]2(c3cc(C#CC4=CCCCC4)ccc31)[C@H](c1ccccc1OCCO)N1[C@H](c3ccccc3)[C@H](c3ccccc3)OC(=O)[C@H]1[C@@H]2C(N)=O -0.96

Indicate the recorded z-score value for this compound: C=CC(CO)NC(=O)OCC1c2ccccc2-c2ccccc21 (stereo not drawn) 0.534

Please give the documented z-score of COCCOC(=O)N1C(=O)[C@@]2(c3cc(C#Cc4ccc(OC)cc4)ccc31)[C@H](C(=O)N1CCCCCCC1)[C@H]1C(=O)O[C@H](c3ccccc3)[C@H](c3ccccc3)N1[C@@H]2c1ccccc1OCCO -0.16

Consider the compound COc1ccc(CCNC(=O)[C@@]2(Sc3ccc(C)cc3)CC(=O)N(Cc3cc(C(F)(F)F)cc(C(F)(F)F)c3)[C@@H]2c2ccc(CO)cc2)cc1 and give its recorded z-score. 1.15

Please give the documented z-score of COc1cc2c(cc1O)C(c1ccc(CN3CCCC3)cc1)N(Cc1cccc(OC(F)(F)F)c1)CC2 (stereo not drawn) -0.955

Hello, please tell me recorded z-score for this one: Cc1ccc(S[C@]2(C(=O)NC3CC3)CC(=O)N(Cc3cc(C(F)(F)F)cc(C(F)(F)F)c3)[C@@H]2c2ccc(CO)cc2I)cc1 -0.921

In one line, give reported z-score of the entry CN(C)CCCC[C@@H]1NC(=O)[C@H]2C[C@@H](C(=O)O)[C@@H](c3cccc(OCCO)c3)N2C1=O . -0.786

Supply reported z-score belonging to this compound: CN(C)CCCC[C@@H]1NC(=O)[C@@H]2C[C@H](C(=O)NCCCCCCNC(=O)CS)[C@H](c3cccc(OCCO)c3)N2C1=O -0.666

For the compound CO[C@H]1O[C@H](CO)[C@@H](OC(=O)Nc2ccc3c(c2)OCO3)[C@@H]2OC(=O)[C@@H](Cc3ccccc3)C/C=C/C[C@H](Cc3ccccc3)C(=O)O[C@@H]12 , report z-score. -0.469

Give z-score for the following compound: CC(C)C[C@@H]1NC(=O)[C@H]2C[C@@H](C(=O)NCCCCCCNC(=O)CS)[C@@H](c3ccc(O)cc3)N2C1=O 0.486

Annotate the compound COc1cc2c(cc1O)C(C1CC1)N(Cc1ccc([N+](=O)[O-])o1)CC2 (stereo not drawn) with its measured z-score. -0.748

Consider the compound COCCOC(=O)N1C(=O)[C@@]2(c3cc(C#CCC(C(=O)OC)C(=O)OC)ccc31)[C@H](C(N)=O)[C@H]1C(=O)O[C@H](c3ccccc3)[C@H](c3ccccc3)N1[C@@H]2c1ccc(OCCO)cc1 and give its recorded z-score. -1.09

Data provenance is PubChem BioAssay.
